Reference for the values: patent US5945539A

Let's look at some compounds and their measured IC50.
- system.under.test: human cyclooxygenase-2 (COX-2) (Homo sapiens, UniProt P35354)
- Sequence (P35354 18-604): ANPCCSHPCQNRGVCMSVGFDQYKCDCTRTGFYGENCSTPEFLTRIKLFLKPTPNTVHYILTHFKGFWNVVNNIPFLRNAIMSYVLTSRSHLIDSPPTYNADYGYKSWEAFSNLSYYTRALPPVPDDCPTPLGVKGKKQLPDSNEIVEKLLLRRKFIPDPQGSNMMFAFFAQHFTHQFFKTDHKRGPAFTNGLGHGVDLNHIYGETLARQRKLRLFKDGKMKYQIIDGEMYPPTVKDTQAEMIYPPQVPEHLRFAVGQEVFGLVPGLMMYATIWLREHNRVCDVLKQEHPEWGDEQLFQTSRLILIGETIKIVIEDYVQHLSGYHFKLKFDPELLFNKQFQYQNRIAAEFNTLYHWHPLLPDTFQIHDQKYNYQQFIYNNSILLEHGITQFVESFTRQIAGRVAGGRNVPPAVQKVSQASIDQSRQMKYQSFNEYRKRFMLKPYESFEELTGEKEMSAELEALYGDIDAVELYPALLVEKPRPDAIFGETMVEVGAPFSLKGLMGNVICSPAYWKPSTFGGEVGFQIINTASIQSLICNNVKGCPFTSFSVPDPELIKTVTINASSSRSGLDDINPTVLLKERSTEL

Cc1nc(-c2ccc(Cl)s2)c(-c2ccc(S(C)(=O)=O)cc2)o1
30 nM
Cc1nc(-c2ccc(Cl)s2)c(-c2ccc(S(N)(=O)=O)cc2)o1
20 nM
Cc1nc(-c2ccc(C)s2)c(-c2ccc(S(C)(=O)=O)cc2)o1
40 nM
Cc1nc(C2CCCCC2)c(-c2ccc(S(N)(=O)=O)cc2)o1
70 nM

Looking up `CNS(=O)(=O)c1ccc(-c2oc(C)nc2C2CCCCC2)cc1` , I see its IC50 listed as 4000 nM

----------
- assay: effects on gastric ulcer formation in rats (Experimental Example 3)
- Parameters: species or system male Donryu rats
- condition: rat, in vivo, po
endpoint: TD50 at 6 h

Cc1nc(-c2ccc(Cl)s2)c(-c2ccc(S(C)(=O)=O)cc2)o1
> 100 mg/kg
Cc1nc(-c2ccc(C)s2)c(-c2ccc(S(C)(=O)=O)cc2)o1
> 100 mg/kg
Cc1nc(C2CCCCC2)c(-c2ccc(S(N)(=O)=O)cc2)o1
> 100 mg/kg

Looking up `Cc1nc(C2CCCCC2)c(-c2ccc(S(C)(=O)=O)cc2)o1` , I see its TD50 at 6 h listed as > 100 mg/kg

----------
- system.under.test: cyclooxygenase-1 (COX-1) (Ovis aries)
- Sequence (P05979 25-600): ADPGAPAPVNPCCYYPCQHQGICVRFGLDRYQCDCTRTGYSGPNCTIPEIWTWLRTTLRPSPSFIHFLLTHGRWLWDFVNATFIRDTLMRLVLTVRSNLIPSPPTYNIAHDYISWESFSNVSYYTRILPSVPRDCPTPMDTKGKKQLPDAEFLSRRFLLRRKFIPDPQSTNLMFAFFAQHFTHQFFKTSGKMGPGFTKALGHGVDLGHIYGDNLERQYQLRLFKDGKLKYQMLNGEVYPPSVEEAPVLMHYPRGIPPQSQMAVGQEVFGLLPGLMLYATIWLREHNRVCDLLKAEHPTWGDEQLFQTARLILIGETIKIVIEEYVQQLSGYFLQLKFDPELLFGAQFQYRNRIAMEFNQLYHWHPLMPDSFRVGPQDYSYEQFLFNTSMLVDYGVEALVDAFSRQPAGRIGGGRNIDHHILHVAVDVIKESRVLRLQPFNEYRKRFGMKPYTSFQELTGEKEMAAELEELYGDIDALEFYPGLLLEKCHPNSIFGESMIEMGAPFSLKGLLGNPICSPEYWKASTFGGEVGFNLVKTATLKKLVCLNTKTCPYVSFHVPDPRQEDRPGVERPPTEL
- assay: inhibitory activity on cyclooxygenase-1 (Experimental Example 1-1, sheep seminal vesicle microsome fraction)
- Type: biochemical
- condition: sheep seminal vesicle COX-1; inhibition at 100 μM test compound
Let's look at some molecules and their measured inhibition at 100 µM.
Give the value, in units of %, as a plain number.

Some solved entries appear below for comparison.
Cc1nc(-c2ccc(S(C)(=O)=O)cc2)c(-c2ccc(Cl)s2)o1
57
Cc1nc(-c2cccs2)c(-c2ccc(S(C)(=O)=O)cc2)o1
14
Cc1nc(C2CCC(C)CC2)c(-c2ccc(S(C)(=O)=O)cc2)o1 (centres unmarked)
26
Cc1nc(-c2ccc(Cl)s2)c(-c2ccc(S(C)(=O)=O)cc2)o1
13
Cc1nc(-c2ccsc2)c(-c2ccc(S(C)(=O)=O)cc2)o1
2

Please examine the following record next.
Bench note, cyclooxygenase-1 (COX-1) (Ovis aries): `Cc1nc(-c2ccco2)c(-c2ccc(S(C)(=O)=O)cc2)o1` , inhibition at 100 µM reads 7

----------
- system.under.test: cyclooxygenase-1 (COX-1) (Ovis aries, UniProt P05979)
- assay: inhibitory activity on cyclooxygenase-1 (Experimental Example 1-1, sheep seminal vesicle microsome fraction)
- Assay type: biochemical
- condition: sheep seminal vesicle COX-1; inhibition at 100 μM test compound
Let's look at some compounds and their measured inhibition at 100 µM.
Record the result as a number with its unit.

Some solved entries appear below for comparison.
CCc1nc(C2CCCCC2)c(-c2ccc(S(C)(=O)=O)cc2)o1 [Example 3]
18%
Cc1nc(-c2ccc(S(C)(=O)=O)cc2)c(-c2ccc(C)s2)o1 [2(B)]
10%
Cc1nc(-c2ccc(S(C)(=O)=O)cc2)c(-c2cccs2)o1 [11(B)]
6%
CC1=CCC(c2nc(C)oc2-c2ccc(S(C)(=O)=O)cc2)CC1 (centres unmarked) [Example 5]
5%

Please examine the following record next.
Looking up Cc1nc(C2CCCCC2)c(-c2ccc(S(C)(=O)=O)cc2)o1 [Example 1] , I see its inhibition at 100 µM listed as 11%
